# assaySystem: LXRβ (Homo sapiens)
# Construct: Co-transfection expression plasmids, comprising full-length LXRα (pCMX-h LXRα or LXRβ (pCMX-hLXRβ)); expressed in transfected cells; host or cells: CV-1 African green monkey kidney cells, transient transfection with pCMX-hLXRβ
# Sequence (P55055 whole entry): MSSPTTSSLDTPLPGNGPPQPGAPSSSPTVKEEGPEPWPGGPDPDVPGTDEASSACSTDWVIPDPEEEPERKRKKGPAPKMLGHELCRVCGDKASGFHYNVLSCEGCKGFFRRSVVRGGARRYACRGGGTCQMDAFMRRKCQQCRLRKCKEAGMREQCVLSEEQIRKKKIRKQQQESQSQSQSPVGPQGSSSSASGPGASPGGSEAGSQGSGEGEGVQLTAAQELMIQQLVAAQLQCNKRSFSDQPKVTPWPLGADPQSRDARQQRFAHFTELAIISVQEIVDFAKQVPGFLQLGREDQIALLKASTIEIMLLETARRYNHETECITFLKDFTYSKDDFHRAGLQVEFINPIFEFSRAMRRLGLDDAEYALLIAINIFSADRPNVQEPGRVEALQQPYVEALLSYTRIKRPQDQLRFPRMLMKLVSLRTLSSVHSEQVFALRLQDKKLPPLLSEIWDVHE
# Sequence (P19793 whole entry partner): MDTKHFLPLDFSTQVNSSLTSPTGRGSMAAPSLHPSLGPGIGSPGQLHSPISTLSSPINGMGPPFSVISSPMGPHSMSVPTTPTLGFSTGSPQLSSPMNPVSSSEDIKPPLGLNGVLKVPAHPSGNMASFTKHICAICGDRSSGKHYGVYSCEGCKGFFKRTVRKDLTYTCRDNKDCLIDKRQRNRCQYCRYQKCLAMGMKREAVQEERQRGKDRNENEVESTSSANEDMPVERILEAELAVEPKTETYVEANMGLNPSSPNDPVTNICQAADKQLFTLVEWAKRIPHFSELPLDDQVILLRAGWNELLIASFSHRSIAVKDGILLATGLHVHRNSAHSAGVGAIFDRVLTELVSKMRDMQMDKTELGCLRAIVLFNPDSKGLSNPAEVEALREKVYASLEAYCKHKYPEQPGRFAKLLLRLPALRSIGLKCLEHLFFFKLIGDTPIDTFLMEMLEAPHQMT
# testProtocol: LXR/LXRE co-transfection assay (luciferase reporter) in CV-1 cells, LXRβ
# Format: cell-based
# assayContext: CV-1 cells, relative to maximum response of high control N-(3-((4-fluorophenyl)-(naphthalene-2-sulfonyl)amino)propyl)-2,2-dimethylpropionamide, read-out: LXRbeta % EFFICACY
Kindly apply the following: True if Emax is less than 80%, False in every other case.

Use the examples below as a reference point.
1) Cc1nc(-c2ccc(OC(F)(F)F)cc2)c(-c2cc(-c3cc(F)c(CO)c(S(C)(=O)=O)c3)ccc2-n2nc(C(F)(F)F)cc2C)o1 : True
2) Cc1nc(-c2ccc(OC(F)(F)F)cc2)c(-c2cc(-c3cccc(C(C)(C)C(N)=O)c3)ccc2-n2ccc(COC(N)=O)n2)o1 : True
3) Cc1nc(-c2ccc3c(c2)OC(F)(F)O3)c(-c2cc(-c3cc(F)c(CO)c(S(C)(=O)=O)c3)ccc2-c2cc(C(F)(F)C(=O)NC3CC3)nn2C)o1 : True
4) Cn1nc(C(C)(F)F)cc1-c1ccc(-c2cccc(S(C)(=O)=O)c2)cc1-n1nncc1-c1ccc(OC(F)(F)F)cc1 : False
5) Cc1nc(-c2ccc3c(c2)OC(F)(F)O3)c(-c2cc(-c3cccc(S(C)(=O)=O)c3)ccc2-c2cc(C(C)OC(N)=O)nn2C)o1 (stereo not drawn) : True

Please turn your attention to the following entry.
**Q:** Field: below-cutoff. Rule: recorded Emax strictly less than 80%. Subject: `Cc1nc(-c2ccc3c(c2)OC(F)(F)O3)c(-c2cc(-c3cc(F)c(CO)c(S(C)(=O)=O)c3)ccc2-c2cc(C3(C#N)CC3)nn2C)o1`
**A:** False
